- Assay summary: CCTE_Mundy_HCI_Cortical_NOG_NeuronCount: CCTE's Neurite Outgrowth Assay in rat cortical cells for Neuron Count, Mundy Lab (AID 2284236);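 note: neurons counted by imaging betaIII-tubulin and Hoechst stained cortical cells; cells exposed to compound for about 48 hours before fixation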
Inconclusive results are not listed. Calls of active or inactive are those of the source. Rule for the calls: active = hit-call score of the fitted dose curve at least 0.9, where 1 is the maximum; inconclusive = response in the unintended direction; inactive = score below 0.9.
Hello, when you answer, please use one of the following outcomes: true (active), false (inactive)

These recorded examples may help you get a feel for the data.
Molecule	Discrete label
Cc1ccc(-c2c(Cl)nc(C#N)n2S(=O)(=O)N(C)C)cc1	true
COP(N)(=O)SC (stereo not given)	false
CN(C)C(=S)SSC(=S)N(C)C	true
CCCCOC(=O)c1ccccc1C(=O)OCCCC	false

Okay, next one:
Query block: # fetch the recorded call for `CO/C=C(/C(=O)OC)c1ccccc1Oc1cc(Oc2ccccc2C#N)ncn1` here
Result block: true
